Data provenance is the DeepSol protein solubility set.

testMethodNotes: soluble on expression in E. coli; label from the status in PepcDB or PDB records

{"columns": ["residues", "soluble on expression in E. coli"],
 "data": [
  ["MGSDKIHHHHHHVKIALDPTPFHHSHTLLEFPRVVADLGYKYMQMTPHADFIPFYNHPKADDELVGQLNKACKDVGIEIASVLPVLRWSGPDEDAREAAVRYWKRVIQITVDLGVSTINTEFSGRPEKAEESERAFYRSMEELLPIIEREGLDLLIDPHPDDFVEEGLAAIRVIRGLNSKNVGLVYVASHSFHMKNAPLDIMRAAGDKLRLVHVADTMNHHASHGLRYITNPPGNPVRVHQHLKIGDGDVNWEEFFGGLQEIGFLDREDTVMVSSVFAEDENAAEVSRYQLVTMNNYIATAR", "not soluble"],
  ["MGSDKIHHHHHHMLAIIKQFFAKSHGTTVSDSRFLALNHWLSNTFGEPLSPVLISGDASFRRYFRAVHQGRAMVIMDTPVALIPTEPFVAVRNAYAASGLPVPGIIAKDDEQGFMALEDFGDVQLLSLLNSQSVRHWYPRALALLPGIAAVTQTVLGPLPDYDDAFVRRELGIFTEWLLGTHLKLELTSDEEAIIADAFDMLTQNALEQPKVGMHRDFHSRNLMVVDGELKLLDFQDAVLGPVTYDAVSLLRDCYIRWSEDLVDDMLVEFFVLAHEHALVPPHTDMVQFRRWFELMGLQRHIKAAGIFARLNHRDGKAGYLKDIPLTMHYIRDVAVRYKELGDFAQFIMRRVMPALEAGA", "not soluble"]
]}

###

testMethodNotes: soluble on expression in E. coli; label from the status in PepcDB or PDB records

{"columns": ["residues", "soluble on expression in E. coli"],
 "data": [
  ["MIKESIILKNLEVPTGNICVIKGDKGKLEFLSLGDYGKEVNVKADFLGITRDLEGVPNGKVQPLTKKWVVTMSTQYGCDSGCKFCDVPKVGKGVNVTYNDLKTQLEQALNLHPEIDRTERLNIHYARMGEPSWNNDVLDFTRNLKNIVKPYIGESLIHPVFTTMCPNKNKFLAHRINEWVDIKNNLFQGDAGLQLSINSTNENQRRDMFRGNALTLNEISSIGNDLPMPKGRKYCLNFALADEYEVDAKVLKKLFDPSKFMVKITPLHKTVSSIENDIKTTKGYVSYTPYKDIENDLKKMGFDVLVFVPSYDEDLGRITCGNVILSGSLPKCKYKINLEHHHHHH", "not soluble"],
  ["MGSDKIHHHHHHVEGLIFQSSEFGTDEIYANMEEYIMQITRDNYSQYAQMVQQMFGKKASSNDPLAQCDYGNFSLRFKPVDINFTKPNWDTIMTKRDKPAMSEEEFDEAIKELARKEFATGKRDDDAYRKLCMQHGETVSPDRKAIYESSMKKTGGKMNAACMFWDSKGNKTLSYNPESRNWKAISTDEEFARARVFTSIYNDELARLKEEYGEKAKGNVSYSKIKVDISAERSKEKNNNEGNTIDLQI", "not soluble"],
  ["MKQCAHTKVWQTIVAEAREQAEQEPMLASFYHATIIKHDSLKAALSYILANRLNTASMPAMAVREVIEEAFAADPSISEAAACDICATVNRDPAVSMYSMPLLYLKGYHALQGYRVANWLWRQGRKALATYFQNQISVACQVDIHPAARIGRGIMLDHATGIVIGETAVVEDDVSILQDVTLGGTGKECGDRHPKIREGVMIGAGAKILGNIEVGEGAKIGSGSVVLQAVPPHTTVAGVPARIVGRPQSDKPSLDMDQQFNGRSQTFIGGDGI", "not soluble"]
]}
